- tgt: Cholinesterase (Homo sapiens, UniProt P06276)
- Sequence (P06276 whole entry): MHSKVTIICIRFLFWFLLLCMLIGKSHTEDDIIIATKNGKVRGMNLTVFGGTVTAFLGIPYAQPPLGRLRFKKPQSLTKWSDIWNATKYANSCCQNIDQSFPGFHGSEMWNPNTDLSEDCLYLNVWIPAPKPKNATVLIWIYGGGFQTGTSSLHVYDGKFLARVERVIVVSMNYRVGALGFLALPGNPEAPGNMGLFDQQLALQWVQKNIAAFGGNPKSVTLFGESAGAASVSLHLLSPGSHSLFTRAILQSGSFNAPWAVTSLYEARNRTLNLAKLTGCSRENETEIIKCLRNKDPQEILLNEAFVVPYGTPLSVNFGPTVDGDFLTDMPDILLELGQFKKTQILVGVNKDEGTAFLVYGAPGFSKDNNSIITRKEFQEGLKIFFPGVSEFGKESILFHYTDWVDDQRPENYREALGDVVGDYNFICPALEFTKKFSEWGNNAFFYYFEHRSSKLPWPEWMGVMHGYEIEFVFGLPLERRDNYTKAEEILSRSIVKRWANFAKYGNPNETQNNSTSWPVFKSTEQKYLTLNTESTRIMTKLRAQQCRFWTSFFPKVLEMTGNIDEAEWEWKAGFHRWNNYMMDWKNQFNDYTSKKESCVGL
Hi there, I'd appreciate the recorded IC50 for every entry that follows.
Output spec: scalar in µM, unitless text.

query: What value of IC50 on Cholinesterase (Homo sapiens, UniProt P06276) does CCCCCCCNc1c2c(nc3ccc(OC)cc13)CCCC2 have?
result: 0.04

query: Then CCNc1c2c(nc3ccc(OC)cc13)CCCC2 ?
result: 97

query: Then CCCCCCCCCNc1c2c(nc3ccc(OC)cc13)CCCC2 ?
result: 0.36

query: Then CCCCNc1c2c(nc3ccc(OC)cc13)CCCC2 ?
result: 64

query: Then CCCNc1c2c(nc3ccc(OC)cc13)CCCC2 ?
result: 70

query: Then CCCCCNc1c2c(nc3ccc(OC)cc13)CCCC2 ?
result: 16

query: Then CCCCCCNc1c2c(nc3ccc(OC)cc13)CCCC2 ?
result: 1

query: Then CCCCCCCCNc1c2c(nc3ccc(OC)cc13)CCCC2 ?
result: 0.12
